system: yellow broilers; conditions: 1-day-old yellow broilers, basal ration + 750 ppm, 20 days
MEASURED ATTRIBUTE: ADG (average daily weight gain) (g/d per broiler)
Express your answer in g/d per broiler, writing the number without its unit.

Below are worked cases with known answers.
So, CCCCCCCCCCCCCC(=O)NC(CCC(=O)NCC)C(=O)O (stereo not shown) [Compound 15] ? Its ADG (average daily weight gain) was 14.6

Record CCNC(=O)CCC(NC(=O)c1ccc(C)cc1)C(=O)O (stereo not shown) [Compound 11] . Reported ADG (average daily weight gain): 13.8

Field ADG (average daily weight gain) (entry CCCC(=O)NC(CCC(=O)NCC)C(=O)O (stereo not shown) [Compound 13] ) reads 13.7

Field: next molecule
The molecule identified as CCNC(=O)CCC(NC(=O)c1ccccc1)C(=O)[O-].CCNC(=O)CCC(NC(=O)c1ccccc1)C(=O)[O-].[Zn+2] (stereo not shown) [Compound 7] registered its ADG (average daily weight gain) at 14.5
